The measurements presented in this section are drawn from ChEMBL document CHEMBL5579834.

- ASSAY SUMMARY: Selectivity index, ratio of CC50 for HEK293T cells to IC50 for antiviral activity against HIV-based lentiviral pseudotyped Ebolavirus harboring mucin domain deleted GP infected in HEK293T cells assessed as inhibition of viral entry
- Format: toxicity, cell-based
- CONDITION DETAILS: human, read-out: Ratio CC50/IC50
RECORDED METRIC: selectivity ratio
Give the figure only, with no unit attached.

// recorded selectivity ratio for CC1(C)[C@H]2CC[C@](C)(C2)[C@H]1OC(=O)CCCN1CCOCC1 : 40

// recorded selectivity ratio for C[C@@H]1[C@H]2C[C@@H](C[C@H]1OC(=O)CCN1CCCCC1)C2(C)C : 23

// recorded selectivity ratio for CC1CCN(CCC(=O)O[C@H]2C(C)(C)[C@H]3CC[C@]2(C)C3)CC1 : 48

// recorded selectivity ratio for C[C@@H]1[C@H]2C[C@@H](C[C@H]1OC(=O)CCCN1CCOCC1)C2(C)C : 5

// recorded selectivity ratio for C[C@@H]1[C@H]2C[C@@H](C[C@H]1OC(=O)CCN1CCOCC1)C2(C)C : 4

// recorded selectivity ratio for CN1CCN(CCC(=O)O[C@H]2C(C)(C)[C@H]3CC[C@]2(C)C3)CC1 : 45

// recorded selectivity ratio for CC1(C)[C@H]2CC[C@](C)(C2)[C@H]1OC(=O)CN1CCN(c2ccccc2)CC1 : 17

// recorded selectivity ratio for C[C@@H]1[C@H]2C[C@@H](C[C@H]1OC(=O)CN1CCN(c3ccccc3)CC1)C2(C)C : 6

// recorded selectivity ratio for CC1(C)[C@H]2CC[C@](C)(C2)[C@H]1OC(=O)CN1CCOCC1 : 22
